All figures here come from paper PMC10100771.

# Tested on: E. coli DH5α-pCR2.1-CMY-178
# experiment.summary: MIC by agar dilution, transformant containing blaCMY-178
# Type: cell-based, Escherichia coli
# condition.set: transformants in E. coli DH5α
reported.metric: Increase of MIC by blaCMY-178 compared with blaCMY-172 (fold)
# number only, unit fold dropped from output

// returns reported Increase of MIC by blaCMY-178 compared with blaCMY-172 for input CO/N=C(\C(=O)N[C@@H]1C(=O)N2C(C(=O)O)=C(COC(C)=O)CS[C@H]12)c1csc(N)n1
4

// returns reported Increase of MIC by blaCMY-178 compared with blaCMY-172 for input CO/N=C(\C(=O)N[C@@H]1C(=O)N2C(C(=O)[O-])=C(C[N+]3(C)CCCC3)CS[C@H]12)c1csc(N)n1 [FEP, cefepime]
4

// returns reported Increase of MIC by blaCMY-178 compared with blaCMY-172 for input C[C@H]1[C@H](NC(=O)/C(=N\OC(C)(C)C(=O)O)c2csc(N)n2)C(=O)N1S(=O)(=O)O
4

----------
Record set of MIC for target or system E. coli J53-KPCZA02.
# number only, unit µg/mL dropped from output

// returns reported MIC for input CO/N=C(\C(=O)N[C@@H]1C(=O)N2C(C(=O)O)=C(COC(C)=O)CS[C@H]12)c1csc(N)n1
16

// returns reported MIC for input NCC[C@H](O)C(=O)N[C@@H]1C[C@H](N)[C@@H](O[C@H]2O[C@H](CN)[C@@H](O)[C@H](O)[C@H]2O)[C@H](O)[C@H]1O[C@H]1O[C@H](CO)[C@@H](O)[C@H](N)[C@H]1O
2

// returns reported MIC for input C[C@H]1COc2c(N3CCN(C)CC3)c(F)cc3c(=O)c(C(=O)O)cn1c23
0.03

----------
# target.system: CMY-2 (Klebsiella pneumoniae, UniProt Q48434)
# Construct: were amplified without a signal peptide and cloned into the pET28a; His8 (N); made in house; host or cells: E. coli BL21(DE3)
# Sequence (Q48434 21-381): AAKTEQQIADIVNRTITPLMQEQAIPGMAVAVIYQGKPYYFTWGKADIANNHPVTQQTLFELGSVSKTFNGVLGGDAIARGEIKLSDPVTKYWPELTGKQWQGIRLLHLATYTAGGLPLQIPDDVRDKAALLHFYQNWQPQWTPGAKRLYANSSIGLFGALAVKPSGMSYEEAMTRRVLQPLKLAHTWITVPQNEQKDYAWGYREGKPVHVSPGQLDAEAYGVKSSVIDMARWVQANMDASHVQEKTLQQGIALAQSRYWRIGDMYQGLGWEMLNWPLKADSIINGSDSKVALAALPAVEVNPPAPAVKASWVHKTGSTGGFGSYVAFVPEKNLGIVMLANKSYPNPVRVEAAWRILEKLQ
# experiment.summary: Ki by direct competition assay with nitrocefin, CMY-2
# Format: biochemical
# condition.set: CMY-2; competition with 100 μM nitrocefin, 2-min incubation; mean ± SD; read-out: Ki
# Experimental: blaCMYs (including blaCMY-2, blaCMY-172, and blaCMY-178) were amplified without a signal peptide and cloned into the pET28a, which led to the introduction of an N-terminal His8-Tag.The recombinant plasmids were transformed into E. coli BL21(DE3) and selected using Sanger sequencing. […] Enzymatic activities were measured using a D8 UV-visible spectrophotometer (Rumqee, Shanghai, China) in phosphate-buffered saline (PBS; pH 7.2) at room temperature. […]
reported.metric: Ki (nM)
# number only, unit nM dropped from output

// returns reported Ki for input CC(C)(O/N=C(\C(=O)N[C@@H]1C(=O)N2C(C(=O)[O-])=C(C[n+]3ccccc3)CS[C@H]12)c1csc(N)n1)C(=O)O
32.1

----------
Record set of MIC for target or system E. coli DH5α-pCR2.1.
# number only, unit µg/mL dropped from output

// returns reported MIC for input NCC[C@H](O)C(=O)N[C@@H]1C[C@H](N)[C@@H](O[C@H]2O[C@H](CN)[C@@H](O)[C@H](O)[C@H]2O)[C@H](O)[C@H]1O[C@H]1O[C@H](CO)[C@@H](O)[C@H](N)[C@H]1O [AMK, amikacin]
1

// returns reported MIC for input CO/N=C(\C(=O)N[C@@H]1C(=O)N2C(C(=O)O)=C(COC(C)=O)CS[C@H]12)c1csc(N)n1 [CTX, cefotaxime]
0.06

// returns reported MIC for input C[C@@H](O)[C@H]1C(=O)N2C(C(=O)O)=C(S[C@@H]3CN[C@H](C(=O)N(C)C)C3)[C@H](C)[C@H]12 [MEM, meropenem]
0.03

// returns reported MIC for input C[C@@H]1O[C@@H]1P(=O)(O)O [FOS, fosfomycin]
0.25

// returns reported MIC for input CO/N=C(\C(=O)N[C@@H]1C(=O)N2C(C(=O)[O-])=C(C[N+]3(C)CCCC3)CS[C@H]12)c1csc(N)n1 [FEP, cefepime]
0.12

// returns reported MIC for input CO/N=C(\C(=O)N[C@@H]1C(=O)N2C(C(=O)O)=C(COC(N)=O)CS[C@H]12)c1ccco1 [CXM, cefuroxime]
4

// returns reported MIC for input CC(C)(O/N=C(\C(=O)N[C@@H]1C(=O)N2C(C(=O)[O-])=C(C[n+]3ccccc3)CS[C@H]12)c1csc(N)n1)C(=O)O [CAZ, ceftazidime]
0.25

// returns reported MIC for input CCN1CCN(C(=O)N[C@@H](C(=O)N[C@@H]2C(=O)N3[C@@H]2SC(C)(C)[C@@H]3C(=O)O)c2ccccc2)C(=O)C1=O [PIP, piperacillin]
1

// returns reported MIC for input C[C@H]1COc2c(N3CCN(C)CC3)c(F)cc3c(=O)c(C(=O)O)cn1c23 [LEV, levofloxacin]
0.03

// returns reported MIC for input C[C@H]1[C@H](NC(=O)/C(=N\OC(C)(C)C(=O)O)c2csc(N)n2)C(=O)N1S(=O)(=O)O [ATM, aztreonam]
0.12
